Exercise: state measured Burkin Assay in Myoblasts, signal relative to DMSO for each of the molecules provided.
Tested on: α7 integrin (LacZ reporter in α7βgal+/− myoblasts)
method_summary: Myoblast α7+/LacZ integrin FDG assay (Burkin assay in myoblasts, 96-well)
Format: cell-based, mouse
condition_label: 40 uM; α7+/LacZ myoblasts, 96-well
One number for each entry.

O=CN1CCN(C(=O)CC(c2ccccc2)c2cc(Br)ccc2O)CC1 (stereo not drawn) = 0.9545

Need Burkin Assay in Myoblasts, signal relative to DMSO for each of these molecules.
1. Cc1ccc(S(=O)(=O)NC(C)C(=O)NC(C)c2cccs2)cc1 (stereo not drawn)
2. O=C(O)CC1(c2ccccc2)C(=O)c2ccccc2C1=O
3. COc1ccc(C)cc1NC(=O)c1ccc2c(O)c(S(=O)(=O)c3ccccc3)c(=O)[nH]c2c1
4. CN(C)CCNc1ncnc2sc(-c3ccccc3)cc12

0.8943
0.7591
0.9332
0.05093

Hello, the source for this data is patent US9980943B2, in case you need it.
